tested on: Fibroblast; test: Multiplex assay against human fibroblast; format: toxicity, cell-based; settings: 24 h, 10 µM, compound concentration 10 uM, replicate 2
measuredProperty: Population Mitotic Cells (%)

1. CC(C)[C@H](CO)Nc1nc(Nc2cccc(Cl)c2)c2ncn(C(C)C)c2n1 [PURVALANOLA]    20
2. CC(Cc1ccc(O)c(O)c1)C(C)Cc1ccc(O)c(O)c1 (centres undefined) [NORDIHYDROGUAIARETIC ACID]    83
3. Cl.Cn1c2c(c3ccc(Cl)c(Cl)c31)C(C#N)C1(CCNCC1)NC2=O (centres undefined)    12
4. CC[C@@]1(O)C(=O)OCc2c1cc1n(c2=O)Cc2cc3ccccc3nc2-1 [CAMPTOTHECIN]    0
5. CC(/C=C1\SC(=S)N(CCCC(=O)Nc2ccc(C(=O)O)c(O)c2)C1=O)=C\c1ccccc1    55
6. c1ccc(-c2oc3ncnc(NC[C@@H]4CCCO4)c3c2-c2ccccc2)cc1    0
7. N#Cc1cccc(C(=O)Nc2cc(-c3ccccc3)nn2-c2ccccc2)c1    57
8. CCCCN(CC)c1nc(C)nc2c1c(C)cn2-c1c(C)cc(C)cc1C.Cl    75
9. C=CC(=O)Nc1cc(-n2c(=O)ccc3cnc4ccc(-c5ccc(NS(C)(=O)=O)cc5)cc4c32)ccc1C    15
